Every entry's value here was drawn from ChEMBL document CHEMBL1131459.

experiment-description: Inhibitory activity for Group II Metabotropic glutamate receptor in rat forebrain membranes by using [3H]glutamate radioligand
Assay type: cell membranes, Membrane
Classify: Y when IC50 is strictly less than 2000 nM; N when IC50 is not.

1) N[C@@](CC(c1ccccc1)c1ccccc1)(C(=O)O)[C@H]1C[C@@H]1C(=O)O = Y
2) N[C@@](CCc1cccs1)(C(=O)O)C1C[C@@H]1C(=O)O (stereo not given in full) = Y
3) N[C@@](COc1ccccc1)(C(=O)O)C1C[C@@H]1C(=O)O (stereo not given in full) = N
4) NC(CCCCc1ccccc1)(C(=O)O)[C@H]1C[C@@H]1C(=O)O (stereo not given in full) = N
5) NC(CCc1ccccc1)(C(=O)O)[C@H]1C[C@@H]1C(=O)O (stereo not given in full) = Y

* * *

The following molecules are listed with their measured pIC50 values.
experiment-description: Inhibitory activity for Group II Metabotropic glutamate receptor in rat forebrain membranes by using [3H]glutamate radioligand
Type: cell membranes, Membrane
pIC50: −log10 of the molar value.
recorded-endpoint: pIC50

1) NC(CCc1ccsc1)(C(=O)O)[C@H]1C[C@@H]1C(=O)O (stereo partly specified) = 6.68
2) NC(CCC12CC3CC(CC(C3)C1)C2)(C(=O)O)[C@H]1C[C@@H]1C(=O)O (stereo partly specified) = 6.70
3) CCCCC[C@](N)(C(=O)O)C1C[C@@H]1C(=O)O (stereo partly specified) = 5.74
4) N[C@@](CC1CCCC1)(C(=O)O)C1C[C@@H]1C(=O)O (stereo partly specified) = 5.85
5) CC(C)CCC[C@](N)(C(=O)O)C1C[C@@H]1C(=O)O (stereo partly specified) = 6.07
6) N[C@@](CCC1C2CC3CC(C2)CC1C3)(C(=O)O)C1C[C@@H]1C(=O)O (stereo partly specified) = 6.26
7) N[C@@](CC1CCCc2ccccc21)(C(=O)O)C1C[C@@H]1C(=O)O (stereo partly specified) = 6.64
8) N[C@@](CC1CCOc2ccccc21)(C(=O)O)C1C[C@@H]1C(=O)O (stereo partly specified) = 6.20
9) N[C@@](CC1c2ccccc2Sc2ccccc21)(C(=O)O)C1C[C@@H]1C(=O)O (stereo partly specified) = 7.72
10) CCC(N)(C(=O)O)[C@H]1C[C@@H]1C(=O)O (stereo partly specified) = 5.66

* * *

target-entity: Metabotropic glutamate receptor 3 (Homo sapiens)
Sequence (Q14832 whole entry): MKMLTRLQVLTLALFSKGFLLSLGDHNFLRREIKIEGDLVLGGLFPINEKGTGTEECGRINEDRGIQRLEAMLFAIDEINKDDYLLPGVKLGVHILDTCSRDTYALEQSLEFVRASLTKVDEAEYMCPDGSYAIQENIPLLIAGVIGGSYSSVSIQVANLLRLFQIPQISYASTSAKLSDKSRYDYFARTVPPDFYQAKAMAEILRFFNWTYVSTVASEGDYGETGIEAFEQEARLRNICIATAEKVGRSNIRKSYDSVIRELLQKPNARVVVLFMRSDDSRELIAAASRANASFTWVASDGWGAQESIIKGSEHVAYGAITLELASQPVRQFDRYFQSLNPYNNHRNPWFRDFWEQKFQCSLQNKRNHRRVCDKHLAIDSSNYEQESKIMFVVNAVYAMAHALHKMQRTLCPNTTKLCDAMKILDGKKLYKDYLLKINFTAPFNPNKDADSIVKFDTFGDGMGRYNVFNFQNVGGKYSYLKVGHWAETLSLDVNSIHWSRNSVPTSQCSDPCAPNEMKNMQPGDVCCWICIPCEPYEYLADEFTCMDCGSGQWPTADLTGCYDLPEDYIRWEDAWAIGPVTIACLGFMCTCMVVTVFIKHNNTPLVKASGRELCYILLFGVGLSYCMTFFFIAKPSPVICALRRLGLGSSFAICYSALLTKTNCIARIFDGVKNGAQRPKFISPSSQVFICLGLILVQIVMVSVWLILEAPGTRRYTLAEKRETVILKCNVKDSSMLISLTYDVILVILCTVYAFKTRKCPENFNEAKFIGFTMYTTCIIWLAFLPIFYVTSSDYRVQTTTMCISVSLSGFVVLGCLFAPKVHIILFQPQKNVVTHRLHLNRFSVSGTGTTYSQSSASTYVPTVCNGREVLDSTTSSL
experiment-description: Ability to block 1S,3R-ACPD-induced inhibition of forskolin stimulated cyclic-AMP in non-neuronal cell line expressing human Metabotropic glutamate receptor 3
Assay type: functional
pIC50: −log10 of the molar value.
recorded-endpoint: pIC50

1) NC(CCc1ccccc1)(C(=O)O)[C@H]1C[C@@H]1C(=O)O (some centres undefined) = 6.19
2) N[C@@](CCC(c1ccccc1)c1ccccc1)(C(=O)O)C1C[C@@H]1C(=O)O (some centres undefined) = < 5.00
3) N[C@@](Cc1ccccc1)(C(=O)O)C1C[C@@H]1C(=O)O (some centres undefined) = < 5.00
4) N[C@@](CC1CCC1)(C(=O)O)C1C[C@@H]1C(=O)O (some centres undefined) = < 5.00

* * *

experiment-description: Inhibitory activity for Group II Metabotropic glutamate receptor in rat forebrain membranes by using [3H]glutamate radioligand
Assay type: cell membranes, Membrane
pIC50: −log10 of the molar value.
Below, each entry is listed alongside its reported pIC50.
recorded-endpoint: pIC50

1. N[C@@](Cc1ccccc1)(C(=O)O)C1C[C@@H]1C(=O)O (stereo partly drawn) = < 5.00
2. N[C@](C(=O)O)(C1Cc2ccccc2C1)C1C[C@@H]1C(=O)O (stereo partly drawn) = < 5.00
3. N[C@@](CC(Cc1ccccc1)Cc1ccccc1)(C(=O)O)C1C[C@@H]1C(=O)O (stereo partly drawn) = < 5.00
